Test: HT29 colon tumor cell growth inhibition, primary screen, imaging, high content imaging, 72 h, CellTiter-Glo (AID 772)
Conditions: HCS imaging cell count, at 10 µM, stronger effect = higher value
Among all 3,300 compounds or so, about 20 (0.6%) were called active. For the sample, actives were picked, then their nearest neighbours and some compounds at random.
Entries and their growth inhibition values follow.
Numbers only here, please. The scale is %.

Here's what some known entries look like.
* Cn1cc(Cl)nc1C(O)c1ccccc1 (configuration not stated) | -111
* CCc1[nH]c(=O)c(C#N)c2c1CSC(C)(C)C2 | 9.49
* Clc1ccccc1-c1nn2c(-c3ccccn3)nnc2s1 | -1.22
* N#CC1=C(C=Nc2ccccc2O)CCC1 | 2.22

Task: # query: growth inhibition of entry CC(C)CCNc1nc2c(cc1C#N)COC(C)(C)C2
Output: 12.7

Task: Endpoint output: growth inhibition of CCOC(=O)C1=C(N)n2c(s/c(=C\c3ccco3)c2=O)=C(C(=O)OC(C)C)C1c1ccco1 (configuration not stated) . Value?
Output: 50

Task: Given the entry O=C1c2ccccc2C(=O)C1c1ccc2ccccc2n1 , report its measured growth inhibition.
Output: 18.9

Task: What value of growth inhibition has been reported for the following compound? COC(=O)C1C(=O)CC(C)(O)C(C(=O)OC)C1c1ccccc1F (configuration not stated)
Output: 19

----------
Assay: HT29 colon tumor cell growth inhibition, primary screen, imaging, high content imaging, 72 h, CellTiter-Glo (AID 772)
Conditions: HCS imaging cell count, measured here: ATP CellTiter-Glo viability, at 10 µM, stronger effect = higher value
Screen size: about 3,300 compounds; about 20 (0.6%) were called active. Many of the other results were omitted from the sample, so actives are more common in it than they were.
# note: exactly -20% is not below, so it is Not met; use Met for growth inhibition strictly under it

Reference set, count: 3
- CCOC(=O)c1c(SC)nc(SC)c2c1CCC2: Met
- CC12CCC(C(=O)NCCCN3CCOCC3)(OC1=O)C2(C)C (configuration not stated): Not met
- Cc1ccc(SCc2nnc(N)s2)cc1: Not met

Task: API: query returns whether the compound falls strictly under -20% in growth inhibition. Query: CCCCCCc1cc2cc(-c3nnc(-c4ccccc4O)o3)c(=O)oc2cc1O
Output: Not met

Task: Lab log: compare recorded growth inhibition with -20%; is it strictly lower for CCOC(=O)/C(C#N)=C1\Nc2ccccc2N=C1N(CC(C)C)CC(C)C ?
Output: Not met

Task: I wonder whether Cc1ccc(N2C(=O)[C@@H]3[C@H](C2=O)C2CCCN2[C@@H]3C(=O)c2ccccc2)cc1 (some centres not stated) has growth inhibition below -20%. Can you tell?
Output: Not met

Task: Regarding CCOC(=O)c1sc(-n2[nH]c(C)cc2=O)nc1C , kindly confirm whether its growth inhibition is beneath -20%.
Output: Not met

Task: Hello, is growth inhibition of the following compound strictly smaller than -20%? O=C1C(=O)N(CCN2CCOCC2)C(c2ccccn2)/C1=C(/O)c1ccc(F)cc1 (configuration not stated)
Output: Met

----------
Assay: HT29 colon tumor cell growth inhibition, primary screen, imaging, high content imaging, 72 h, CellTiter-Glo (AID 772)
Conditions: HCS imaging cell count, measured here: ATP CellTiter-Glo viability, at 10 µM, stronger effect = higher value
Screen size: about 3,300 compounds; about 20 (0.6%) were called active. The full list was thinned out, with actives kept by preference.
Overview of reported growth inhibition across a group of compounds:
Express the result in % but write the number alone.

Task: Any idea what growth inhibition was measured for Cc1c(CCC#N)c(N2CCN(C3CCCCC3)CC2)n2c(nc3ccccc32)c1C#N ?
Output: -4.95

Task: If you can, please state the reported growth inhibition value of c1ccc(Cc2nn[nH]n2)cc1 .
Output: -16.9

Task: Return reported growth inhibition; argument: Cc1cccc(OCC(=O)N2CCC(N3CCCCCC3)CC2)c1
Output: -10.7

Task: Entry Fc1ccc2[nH]c3c(N4CCN(Cc5ccc6c(c5)OCO6)CC4)ncnc3c2c1 has what growth inhibition?
Output: 96.7

Task: Sample CCOC(=O)CSc1nc(NC#N)nc(N(CC)CC)n1 — what was its growth inhibition?
Output: -34.2

Task: Give the measured growth inhibition of Cn1cc(Cl)nc1C(O)c1ccccc1 (stereo not drawn) .
Output: -43.7

Task: Returns the measured growth inhibition for the input compound. Input: Fc1ccc(C2C3=C(Nc4ncnn42)c2ccccc2OC3c2ccncc2)cc1 (stereo not drawn)
Output: 20.5
